studyTarget: T1, human ROR1 on cells (HEK293T-hROR1, PANC-1, A549) (human, UniProt Q01973 30-937)
T1 construct: whole, on cells; one molecule for the three cell lines; also called huROR1; cell surface ROR1
T1 sequence (Q01973 30-937): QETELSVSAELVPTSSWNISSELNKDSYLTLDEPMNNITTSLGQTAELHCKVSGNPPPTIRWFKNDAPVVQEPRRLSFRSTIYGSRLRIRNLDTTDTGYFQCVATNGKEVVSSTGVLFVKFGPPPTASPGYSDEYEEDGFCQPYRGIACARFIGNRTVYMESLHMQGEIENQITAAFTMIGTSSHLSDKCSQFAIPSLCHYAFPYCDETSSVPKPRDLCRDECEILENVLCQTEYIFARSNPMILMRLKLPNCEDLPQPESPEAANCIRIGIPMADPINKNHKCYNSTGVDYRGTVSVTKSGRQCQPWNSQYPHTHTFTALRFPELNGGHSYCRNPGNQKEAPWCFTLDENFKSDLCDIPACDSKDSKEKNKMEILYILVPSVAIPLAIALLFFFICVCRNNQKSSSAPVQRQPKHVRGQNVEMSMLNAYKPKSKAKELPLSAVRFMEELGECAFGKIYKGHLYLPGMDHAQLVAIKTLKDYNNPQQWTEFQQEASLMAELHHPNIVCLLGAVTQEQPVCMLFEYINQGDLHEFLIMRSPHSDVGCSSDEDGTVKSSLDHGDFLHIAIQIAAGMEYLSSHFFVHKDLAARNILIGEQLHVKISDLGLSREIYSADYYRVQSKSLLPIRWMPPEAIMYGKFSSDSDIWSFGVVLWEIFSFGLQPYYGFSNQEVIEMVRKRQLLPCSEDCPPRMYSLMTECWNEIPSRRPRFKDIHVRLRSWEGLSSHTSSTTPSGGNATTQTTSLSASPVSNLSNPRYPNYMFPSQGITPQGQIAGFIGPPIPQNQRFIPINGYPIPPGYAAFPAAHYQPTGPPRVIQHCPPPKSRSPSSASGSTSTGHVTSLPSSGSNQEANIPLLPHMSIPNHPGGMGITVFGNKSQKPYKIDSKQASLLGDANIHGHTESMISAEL
assayProcedure: flow cytometry, HEK293T-hROR1 cells
Description: In brief, anti-ROR1 antibodies were serially diluted in staining buffer (PBS containing 2% FBS). Antibody solution was incubated with 1×10⁵ cells at 4° C. for 1 hour. […] After 1-hour incubation at 4° C., cells were washed twice with staining buffer and subjected to flow cytometry. PR000374 (Bench marker 1) and non-relevant IgG isotype control (Crownbio) were used as positive and negative controls, respectively.
For each record, write down the corresponding EC50.
Give bare numbers, in µg/mL.

binder	EC50 [µg/mL]
PR303199 (antibody, human IgG1, V domains shown, HCAb (heavy chain-only, human IgG1 Fc), no light chain) VH: EVQLVESGGGLVKPGGSLRLSCAASGFTFSDYYMSWIRQAPGKGLEWIAYISSSGSTIYYADSVKGRFTISRDNAKNSLYLQMNSLRAEDTAIYYCAREYYGSENYDHFDYWGQGTLVTVSS	0.191
PR000374 (antibody, human IgG1, kappa, V domains shown, positive control; also called Bench marker 1) VH: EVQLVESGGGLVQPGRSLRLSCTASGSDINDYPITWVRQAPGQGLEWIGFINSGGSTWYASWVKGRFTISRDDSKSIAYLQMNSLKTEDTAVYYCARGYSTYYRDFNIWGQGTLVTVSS VL: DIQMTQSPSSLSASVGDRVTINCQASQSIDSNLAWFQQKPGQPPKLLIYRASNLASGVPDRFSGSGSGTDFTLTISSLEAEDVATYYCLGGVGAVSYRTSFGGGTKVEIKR	0.506
PR303147 (antibody, human IgG1, V domains shown, HCAb (heavy chain-only, human IgG1 Fc), no light chain) VH: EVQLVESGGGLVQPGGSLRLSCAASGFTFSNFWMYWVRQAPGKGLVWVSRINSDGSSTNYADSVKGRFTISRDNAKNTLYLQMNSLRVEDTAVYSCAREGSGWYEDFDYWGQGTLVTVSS	0.325

// switching to the query binder
The binder listed as PR303155 (antibody, human IgG1, V domains shown, HCAb (heavy chain-only, human IgG1 Fc), no light chain) VH: EVQLVESGGGLVKPGGSLRLSCAASGFTLSDYYMSWIRQAPGKGLEWISYISSNGSTIYYADSVKGRFTISRDNARNSLYLQMNSLRAEDTALYYCARDVSSGWYEDFDYWGQGTLVTVSS has a reported EC50 of 0.267

// data source = patent US20250257130A1
